Values compiled from patent US8946439B2.

Biological target: hP2X3 (Homo sapiens, UniProt P56373)
Construct: expressed in transfected cells; host or cells: e.g. HEK293 or 1321N1
Sequence (P56373 whole entry): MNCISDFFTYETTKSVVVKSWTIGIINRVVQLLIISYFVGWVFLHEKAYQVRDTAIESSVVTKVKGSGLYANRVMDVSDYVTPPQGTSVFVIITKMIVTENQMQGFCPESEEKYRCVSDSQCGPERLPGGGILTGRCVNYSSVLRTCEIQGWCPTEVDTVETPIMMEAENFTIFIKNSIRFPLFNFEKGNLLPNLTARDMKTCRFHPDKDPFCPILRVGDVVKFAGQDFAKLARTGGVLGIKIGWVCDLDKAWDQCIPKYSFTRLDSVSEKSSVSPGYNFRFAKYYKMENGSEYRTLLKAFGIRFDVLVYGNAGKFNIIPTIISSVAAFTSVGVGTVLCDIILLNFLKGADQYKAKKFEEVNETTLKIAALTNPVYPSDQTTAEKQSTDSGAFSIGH
Assay: Calcium uptake assay (P2X antagonist assay), P2X3 homomer
Format: cell-based
Settings: calcium uptake assay, hP2X3; read-out: IC50 hP2X3 (nM), Ca Influx
For each entry below, report its IC50 value.

Guide cases for IC50, answers given:
Cc1ccc(-c2cc(C(=O)N[C@H](C)c3ccc(C(F)(F)F)nc3)cc(C(=O)N3CC[C@@H](O)C3)c2)cc1 < 100 nM
Cc1ccc(-c2cc(C(=O)NCc3ccc(C)nc3)cc(S(=O)(=O)CC(C)C)c2)cc1 < 100 nM
Cc1ccc(-c2cc(C(=O)N[C@H](C)c3ccc(C(F)(F)F)nc3)cc(C(=O)N3CCCC3)c2)cc1 100 to 500 nM
COc1ncc(CNC(=O)c2cc(C(=O)N3CCCC3)cc(-c3ccc(C)cc3)c2)cn1 < 100 nM
Cc1ccc(CNC(=O)c2cc(-c3ccc(Cl)c(C)c3)cc(S(C)(=O)=O)c2)cn1 > 1000 nM

Items follow; give IC50 for each.
1. Cc1ccc(CNC(=O)c2cc(-c3ccc(Cl)c(C(F)(F)F)c3)cc(S(C)(=O)=O)c2)cn1
2. Cc1ccc(-c2cc(C(=O)O)cc(C(=O)N[C@@H](C)CO)c2)cc1
3. Cc1ccc(CNC(=O)c2cc(-c3ccc(Cl)cc3)cc(S(C)(=O)=O)c2)cn1

Solution:
["> 1000 nM", "> 1000 nM", "100 to 500 nM"]
